B1: scFv; the commonest letter at each place (parent)
chain 1: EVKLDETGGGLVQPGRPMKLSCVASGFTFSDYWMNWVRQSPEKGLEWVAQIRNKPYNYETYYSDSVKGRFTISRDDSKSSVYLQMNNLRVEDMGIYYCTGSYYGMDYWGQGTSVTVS
chain 2: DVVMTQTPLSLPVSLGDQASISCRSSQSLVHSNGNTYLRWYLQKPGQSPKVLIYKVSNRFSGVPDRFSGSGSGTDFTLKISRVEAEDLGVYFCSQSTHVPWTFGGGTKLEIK

Variants of: B1
EXPERIMENT NOTES: yeast surface expression (ratio to wild type); higher = more expressed
PARTICULARS: format: scFv 4-4-20, heavy + light
READOUT: yeast surface expression
Answers are plain numbers.

chain 1 S30E M34W N35M : 0.493
chain 1 S101D Y103A : 1.07
chain 1 M34N N35H : 1.84

Below: the item to evaluate.
QUERY: Look up yeast surface expression: chain 1 Y32Q
RESULT: 0.929

Every entry's value here was drawn from the FLAb antibody collection (doi:10.7554/elife.23156).
